Biological target: Phosphorylase b kinase gamma catalytic chain, liver/testis isoform (Homo sapiens) (UniProt P15735);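 further: values are mean inhibition of PHKG2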
Sequence (P15735 whole entry, canonical isoform): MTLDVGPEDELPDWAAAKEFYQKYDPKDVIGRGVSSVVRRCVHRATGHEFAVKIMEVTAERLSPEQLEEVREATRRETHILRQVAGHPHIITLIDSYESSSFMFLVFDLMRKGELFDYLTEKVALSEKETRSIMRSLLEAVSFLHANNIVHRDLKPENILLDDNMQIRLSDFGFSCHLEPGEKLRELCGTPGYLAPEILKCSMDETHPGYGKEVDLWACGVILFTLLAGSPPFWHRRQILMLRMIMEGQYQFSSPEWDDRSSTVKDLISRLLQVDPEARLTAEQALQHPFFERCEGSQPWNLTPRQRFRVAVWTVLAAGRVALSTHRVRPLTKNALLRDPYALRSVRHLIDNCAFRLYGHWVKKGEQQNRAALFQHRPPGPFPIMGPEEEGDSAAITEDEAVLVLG
Conditions: at 0.1 µM
Observable: inhibition

Reported inhibition ( COc1cccc(-n2cnc3c(N/N=C/c4ccncc4)ncnc32)c1 ) = 1.83%

Reported inhibition ( NS(=O)(=O)c1ccc(N/N=C2\C(=O)Nc3ccc(-c4cnco4)cc32)cc1 ) = 1.94%

Reported inhibition ( CCS(=O)(=O)c1ccc(OC)c(Nc2ncc(-c3ccccc3Cl)o2)c1 ) = 1.67%

Reported inhibition ( COc1ccc2cc(-c3c(-c4ccncc4)nc(-c4ccc(S(C)(=O)=O)cc4C)n3C)ccc2c1 ) = 5.31%

Reported inhibition ( C#Cc1cccc(Nc2ncnc3ccc(OCCCCNCCS(C)(=O)=O)cc23)c1 ) = 5.8%

Reported inhibition ( CN(C)c1ccc2c(c1)/C(=C/Nc1ccc(S(N)(=O)=O)cc1)C(=O)N2 ) = 2.06%

---

Biological target: RAC-alpha serine/threonine-protein kinase (Homo sapiens) (UniProt P31749)
Sequence (P31749 whole entry): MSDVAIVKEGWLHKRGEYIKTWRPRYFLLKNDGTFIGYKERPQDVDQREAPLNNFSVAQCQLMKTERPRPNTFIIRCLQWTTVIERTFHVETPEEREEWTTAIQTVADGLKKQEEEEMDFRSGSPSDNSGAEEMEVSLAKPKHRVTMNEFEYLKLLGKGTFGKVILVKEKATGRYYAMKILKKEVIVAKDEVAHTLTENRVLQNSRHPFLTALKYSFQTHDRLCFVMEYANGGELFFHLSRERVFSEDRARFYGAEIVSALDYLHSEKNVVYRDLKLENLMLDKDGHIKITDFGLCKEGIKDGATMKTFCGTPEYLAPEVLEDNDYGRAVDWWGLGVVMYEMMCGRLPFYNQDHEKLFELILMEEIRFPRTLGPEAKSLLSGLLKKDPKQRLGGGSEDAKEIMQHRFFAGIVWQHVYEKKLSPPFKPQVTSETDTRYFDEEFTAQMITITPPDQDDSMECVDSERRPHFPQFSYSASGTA
Conditions: at 1 µM
Description: GSK_PKIS: AKT1 mean inhibition at 1 uM [Nanosyn]
Observable: inhibition (%)
Write the number in % without appending the unit.

Reported inhibition ( COc1ccc(-c2ccc3c(NC(=O)C4CC4)n[nH]c3n2)cc1 ) = 0.55

Reported inhibition ( O=C1NC(=O)C(c2cccc(Cl)c2)=C1Nc1ccc(Cl)c(C(=O)O)c1 ) = 1.15

Reported inhibition ( Nc1nccc(-c2c(-c3ccc(F)cc3)ncn2C2CCC(O)CC2)n1 (centres undefined) ) = -1.14

Reported inhibition ( COc1cc(Nc2ncc3c(C)nc(-c4cccc(C(F)(F)F)c4)n3n2)cc(OC)c1OC ) = 0.77

Reported inhibition ( c1ccc(-c2n[nH]cc2-c2ccnc(-c3ccc(OCCN4CCOCC4)cc3)c2)nc1 ) = 0.23

Reported inhibition ( COc1cc(Nc2ncc(-c3ccccc3)o2)cc(OC)c1OC ) = -1.61

Reported inhibition ( Clc1ccc(CNc2nccc(-c3cnn4ncccc34)n2)cc1 ) = 0.44

Reported inhibition ( NC(=O)c1ccc(Oc2nccc(-c3c(-c4ccc(F)cc4)ncn3C3CCNCC3)n2)cc1 ) = 3.25

Reported inhibition ( CCc1ccc(Oc2nccc(-c3c(-c4ccc(F)cc4)ncn3C3CCNCC3)n2)cc1 ) = 3.72

Reported inhibition ( CCS(=O)(=O)c1ccc(OC)c(Nc2ncc(-c3ccccc3Cl)o2)c1 ) = 0.46

Reported inhibition ( N#Cc1ccc(Oc2nccc(-c3c(-c4ccc(F)cc4)ncn3C3CCNCC3)n2)cc1 ) = 0.41

Reported inhibition ( Fc1ccc(-c2ncn(C3CCNCC3)c2-c2ccnc(Oc3ccc(F)c(F)c3)n2)cc1 ) = -3.59

Reported inhibition ( Cc1ccc(C(=O)NC2CCC2)cc1-c1ccc(C(=O)NCC2CC2)cc1 ) = -0.14

Reported inhibition ( COc1cccc(/C=N/Nc2ncnc3c2cnn3-c2cccc(OC)c2)c1 ) = -0.26

---

Biological target: Tyrosine-protein kinase JAK2 (Homo sapiens) (UniProt O60674);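 further: mean percent inhibition of JAK2 activity, from the GSK PKIS kinase panel screen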
Sequence (O60674 whole entry): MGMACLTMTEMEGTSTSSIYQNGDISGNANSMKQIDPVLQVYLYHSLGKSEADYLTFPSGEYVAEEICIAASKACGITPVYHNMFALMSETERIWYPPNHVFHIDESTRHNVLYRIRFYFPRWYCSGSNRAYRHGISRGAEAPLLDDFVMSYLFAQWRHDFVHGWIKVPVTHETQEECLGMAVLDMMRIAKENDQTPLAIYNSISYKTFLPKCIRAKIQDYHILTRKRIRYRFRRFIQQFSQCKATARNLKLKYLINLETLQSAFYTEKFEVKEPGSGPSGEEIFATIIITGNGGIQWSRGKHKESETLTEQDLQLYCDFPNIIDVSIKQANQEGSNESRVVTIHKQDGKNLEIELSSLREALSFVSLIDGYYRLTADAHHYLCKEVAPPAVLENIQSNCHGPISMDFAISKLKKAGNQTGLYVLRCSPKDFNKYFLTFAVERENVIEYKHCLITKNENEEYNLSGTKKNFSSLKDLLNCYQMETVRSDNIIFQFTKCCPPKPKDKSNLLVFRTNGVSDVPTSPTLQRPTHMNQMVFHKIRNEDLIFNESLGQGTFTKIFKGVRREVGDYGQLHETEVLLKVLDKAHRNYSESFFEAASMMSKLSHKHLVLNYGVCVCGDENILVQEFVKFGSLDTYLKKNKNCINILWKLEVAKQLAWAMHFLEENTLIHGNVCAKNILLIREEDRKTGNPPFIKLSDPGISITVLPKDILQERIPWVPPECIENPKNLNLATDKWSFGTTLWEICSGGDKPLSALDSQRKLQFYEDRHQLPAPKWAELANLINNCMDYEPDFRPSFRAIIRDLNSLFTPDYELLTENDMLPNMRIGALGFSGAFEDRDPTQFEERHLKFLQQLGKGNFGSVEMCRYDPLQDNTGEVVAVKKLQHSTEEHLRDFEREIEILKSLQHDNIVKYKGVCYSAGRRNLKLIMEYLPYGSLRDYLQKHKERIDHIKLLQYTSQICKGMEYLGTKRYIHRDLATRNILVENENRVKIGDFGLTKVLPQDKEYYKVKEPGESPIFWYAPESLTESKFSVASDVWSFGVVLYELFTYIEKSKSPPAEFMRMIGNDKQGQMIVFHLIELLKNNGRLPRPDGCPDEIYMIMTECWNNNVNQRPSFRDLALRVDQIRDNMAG
Conditions: at 0.1 µM
Provide the recorded inhibition for the entries that follow.
Write the number in % without appending the unit.

Reported inhibition ( Fc1ccc(-c2nc3n(c2-c2ccncc2)CCS3)cc1 ) = 0.84

Reported inhibition ( O=C(Nc1n[nH]c2nc(-c3ccc(O)cc3)c(Br)cc12)C1CC1 ) = 3.57

Reported inhibition ( COc1cc(Nc2ncc3c(C)nc(-c4cccc(Oc5ccccc5)c4)n3n2)cc(OC)c1OC ) = 0.96

Reported inhibition ( Fc1ccc(-c2ncn(C3CCNCC3)c2-c2ccnc(Oc3ccc(Oc4ccccc4)cc3)n2)cc1 ) = 2.34

Reported inhibition ( NS(=O)(=O)c1ccc(N/N=C2\C(=O)Nc3ccc(-c4cnco4)cc32)cc1 ) = 0.38

Reported inhibition ( C/C(Nc1ccc(S(N)(=O)=O)cc1)=C1/C(=O)Nc2ccccc21 ) = -0.57

Reported inhibition ( Cc1nnc(-c2ccc(C)c(-c3ccc(C(=O)NCc4ccc(Cl)cc4)cc3)c2)o1 ) = 1.06

Reported inhibition ( CCc1ccc(Oc2nccc(-c3c(-c4ccc(F)cc4)ncn3C3CCNCC3)n2)cc1 ) = 1.64

Reported inhibition ( COc1cc(Nc2ncc(-c3ccccc3)o2)cc(OC)c1OC ) = -0.76

Reported inhibition ( Fc1ccc(-c2ncn(C3CCNCC3)c2-c2ccnc(Oc3ccc(F)c(F)c3)n2)cc1 ) = 1.1

Reported inhibition ( O=C(Nc1n[nH]c2cc(-c3cc(F)ccc3F)ccc12)C1CC1 ) = 1.64

Reported inhibition ( CN(C)CCOc1ccc(-c2cc(-c3ccc4c(c3)CCC4=NO)c(-c3ccncc3)o2)cc1 ) = 0.4

Reported inhibition ( NS(=O)(=O)c1ccc(N/N=C2\C(=O)Nc3ccc(C(=O)NCCCn4ccnc4)cc32)cc1 ) = 0.1

Reported inhibition ( CN(C)c1ccc2c(c1)/C(=C/Nc1ccc(S(N)(=O)=O)cc1)C(=O)N2 ) = 0.74

Reported inhibition ( COc1cc(C)c(N(C)C(=O)CN(C)C)cc1Nc1nc(Nc2cccc(F)c2C(N)=O)c2cc[nH]c2n1 ) = 0.96

Reported inhibition ( COc1cc2ncn(-c3cc(OCc4cccs4)c(C(N)=O)s3)c2cc1OC ) = 1.45

Reported inhibition ( CCC(=O)Nc1ccc(C)c(-c2ccc(C(=O)NCC3CC3)cc2)c1 ) = 1.7

Reported inhibition ( O=C(Nc1n[nH]c2nc(-c3ccco3)ccc12)C1CC1 ) = 0.87

Reported inhibition ( NC(=O)c1cc(-c2ccncc2)cc(-c2ccccc2)c1N ) = 2.14

Reported inhibition ( Cc1ccc(C(=O)NC(C)C)cc1-c1ccc(C(=O)NCC2CC2)cc1 ) = -1.52

Reported inhibition ( COc1cccc(/C=N/Nc2ncnc3c2cnn3-c2cccc(OC)c2)c1 ) = 3.55

Reported inhibition ( CN1CCN(CCCNc2nc3ccc(Oc4ccc(NC(=O)Nc5cc(C(F)(F)F)ccc5F)cc4)cc3[nH]2)CC1 ) = 3.76

Reported inhibition ( Cc1ccc(C(=O)NC2CCC2)cc1-c1ccc(C(=O)NCC2CC2)cc1 ) = 0.91

Reported inhibition ( Fc1ccc(-c2ncn(CCCN3CCOCC3)c2-c2ccncc2)cc1 ) = -0.43

Reported inhibition ( COC(=O)Nc1nc2ccc(Sc3ccc(NC(=O)Nc4cc(C(F)(F)F)ccc4F)cc3)cc2[nH]1 ) = 32.5

Reported inhibition ( Cc1ccc(NC(=O)c2ccoc2)cc1-c1ccc(C(=O)NCC2CC2)cc1 ) = 0

Reported inhibition ( NC(=O)c1ccc(Oc2nccc(-c3c(-c4ccc(F)cc4)ncn3C3CCNCC3)n2)cc1 ) = 2.78

Reported inhibition ( C[C@@H](Oc1cc(-n2cnc3ccc(OCC4CCN(C)CC4)cc32)sc1C(N)=O)c1ccccc1Cl ) = 1.61

---

Provide the recorded inhibition for the entries that follow.
Molecular target: MAP kinase-interacting serine/threonine-protein kinase 1 (Homo sapiens) (UniProt Q9BUB5);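 further: each value is an averaged percent inhibition of MKNK1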
Sequence (Q9BUB5 whole entry, looked up): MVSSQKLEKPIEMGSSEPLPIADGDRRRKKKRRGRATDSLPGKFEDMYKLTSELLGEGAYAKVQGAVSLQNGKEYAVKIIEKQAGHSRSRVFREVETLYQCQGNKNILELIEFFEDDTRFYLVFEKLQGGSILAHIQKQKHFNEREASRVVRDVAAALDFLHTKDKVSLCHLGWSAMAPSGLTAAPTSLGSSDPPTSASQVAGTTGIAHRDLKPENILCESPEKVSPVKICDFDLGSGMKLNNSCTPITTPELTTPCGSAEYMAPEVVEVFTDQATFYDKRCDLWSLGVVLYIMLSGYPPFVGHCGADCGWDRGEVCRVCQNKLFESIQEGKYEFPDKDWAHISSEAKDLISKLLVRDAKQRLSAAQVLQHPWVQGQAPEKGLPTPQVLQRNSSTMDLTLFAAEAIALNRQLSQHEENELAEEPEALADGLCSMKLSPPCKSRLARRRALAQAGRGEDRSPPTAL
Settings: at 1 µM

Reported inhibition ( COc1ccc2cc(-c3c(-c4ccncc4)nc(-c4ccc(S(C)(=O)=O)cc4C)n3C)ccc2c1 ) = 6.69%

Reported inhibition ( NS(=O)(=O)c1ccc(N/N=C2\C(=O)Nc3ccc(-c4cnco4)cc32)cc1 ) = 7.87%

Reported inhibition ( Cc1ccc(C(=O)NC2CCC2)cc1-c1ccc(C(=O)NCC2CC2)cc1 ) = 3.09%

Reported inhibition ( C/C(Nc1ccc(S(N)(=O)=O)cc1)=C1/C(=O)Nc2ccccc21 ) = 3.04%

Reported inhibition ( Clc1ccc(CNc2nccc(-c3cnn4ncccc34)n2)cc1 ) = 6.48%

Reported inhibition ( COc1cc2ncn(-c3cc(OCc4ccccc4C(F)(F)F)c(C(C)=O)s3)c2cc1OC ) = 5.46%

Reported inhibition ( O=C(Nc1n[nH]c2nc(-c3ccco3)ccc12)C1CC1 ) = 9.62%

Reported inhibition ( Fc1ccc(-c2ncn(C3CCNCC3)c2-c2ccnc(Oc3ccc(F)c(F)c3)n2)cc1 ) = 3.06%

Reported inhibition ( NCc1ccc(-n2c(-c3nonc3N)nc3cnccc32)cc1 ) = 13.6%

Reported inhibition ( Cc1ccc(NC(=O)c2ccoc2)cc1-c1ccc(C(=O)NCC2CC2)cc1 ) = 4.75%

---

Test system: Platelet-derived growth factor receptor alpha (Homo sapiens), P16234 [D842V]
Sequence (P16234 whole entry D842V): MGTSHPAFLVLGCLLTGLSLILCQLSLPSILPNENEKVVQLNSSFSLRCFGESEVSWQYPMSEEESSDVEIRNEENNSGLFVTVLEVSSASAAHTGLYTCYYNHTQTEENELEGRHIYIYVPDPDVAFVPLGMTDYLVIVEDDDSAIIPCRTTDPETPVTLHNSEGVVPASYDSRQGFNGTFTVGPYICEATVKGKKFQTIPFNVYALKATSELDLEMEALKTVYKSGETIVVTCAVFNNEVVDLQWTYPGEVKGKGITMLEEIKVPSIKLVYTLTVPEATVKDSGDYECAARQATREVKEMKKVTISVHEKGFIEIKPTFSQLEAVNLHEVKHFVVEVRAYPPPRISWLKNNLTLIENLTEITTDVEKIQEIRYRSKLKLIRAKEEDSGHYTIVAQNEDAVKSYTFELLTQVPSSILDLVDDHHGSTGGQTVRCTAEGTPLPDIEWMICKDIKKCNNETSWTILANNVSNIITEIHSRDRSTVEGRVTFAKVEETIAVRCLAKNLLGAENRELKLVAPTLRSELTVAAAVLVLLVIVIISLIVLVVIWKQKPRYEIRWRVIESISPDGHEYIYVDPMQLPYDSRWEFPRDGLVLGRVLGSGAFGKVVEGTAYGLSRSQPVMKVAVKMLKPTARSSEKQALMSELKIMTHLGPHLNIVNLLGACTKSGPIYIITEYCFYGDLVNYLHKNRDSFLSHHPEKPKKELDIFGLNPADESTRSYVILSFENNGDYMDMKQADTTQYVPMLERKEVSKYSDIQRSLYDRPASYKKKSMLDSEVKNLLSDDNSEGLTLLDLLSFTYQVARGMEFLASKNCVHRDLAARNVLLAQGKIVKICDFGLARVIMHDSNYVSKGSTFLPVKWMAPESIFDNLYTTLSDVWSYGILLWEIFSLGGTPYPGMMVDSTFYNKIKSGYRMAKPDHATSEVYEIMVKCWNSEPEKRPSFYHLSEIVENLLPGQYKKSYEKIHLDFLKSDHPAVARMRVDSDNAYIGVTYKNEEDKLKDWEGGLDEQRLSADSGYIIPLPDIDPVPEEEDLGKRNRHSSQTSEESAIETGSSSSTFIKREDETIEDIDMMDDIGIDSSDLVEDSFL
Details: at 1 µM
Provide the recorded inhibition for the entries that follow.
Write the number in % without appending the unit.

Reported inhibition ( FC(F)(F)c1cccc(Nc2nccc(-c3cnn4nc(-c5ccccc5)ccc34)n2)c1 ) = 33.6

Reported inhibition ( Nc1nccc(-c2c(-c3ccc(F)cc3)ncn2C2CCC(O)CC2)n1 (centres undefined) ) = 14.2

Reported inhibition ( CCS(=O)(=O)c1ccc(OC)c(Nc2ncc(-c3cccc(-c4ccccc4F)c3)o2)c1 ) = 32.1

Reported inhibition ( Clc1ccc(CNc2nccc(-c3cnn4ncccc34)n2)cc1 ) = 4.84

Reported inhibition ( NC(=O)c1ccc(Oc2nccc(-c3c(-c4ccc(F)cc4)ncn3C3CCNCC3)n2)cc1 ) = 4.3

Reported inhibition ( O=C(NCC1CC1)c1ccc(-c2cccc(C(=O)NC3CC3)c2)cc1 ) = -0.59

Reported inhibition ( N#Cc1ccc(Oc2nccc(-c3c(-c4ccc(F)cc4)ncn3C3CCNCC3)n2)cc1 ) = 4.12

Reported inhibition ( COc1cc2ncn(-c3cc(OCCc4ccccc4)c(C(N)=O)s3)c2cc1OC ) = 44.9

Reported inhibition ( CCc1nccc2c1nc(-c1nonc1N)n2CC ) = 9.06

Reported inhibition ( CN(C)CCCNc1nccc(-c2c(-c3ccc(F)cc3)nn3cc(C(F)(F)F)ccc23)n1 ) = 4.77

Reported inhibition ( Fc1ccc(-c2ncn(CCCN3CCOCC3)c2-c2ccncc2)cc1 ) = 1.54

Reported inhibition ( CCc1cccc(CC)c1/C=C/c1cncc(C(=O)NC)c1 ) = 1.22

Reported inhibition ( CS(=O)(=O)CCNCc1ccc(-c2ccc3ncnc(Nc4ccc(OCc5ccccc5)c(Br)c4)c3c2)o1 ) = 4.09

Reported inhibition ( c1ccc(Oc2ccc(Nc3ncc(-c4ccccc4)o3)cc2)cc1 ) = 3.18
